# measurement_protocol: modulators of glucocorticoid suppression of NF-kB, cell-based, luciferase, IL-1B stimulus, dexamethasone (AID 624486);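 also: 100% = mean signal of vehicle control wells on the plate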
# test_parameters: NF-kB luciferase reporter, IL-1B + dexamethasone, luminescence; actives lie on both sides, concentration not given here
Calls of active or inactive are those of the source. No rule for the calls is given here.
Classes used: T = active, F = inactive

INSERT INTO assay_data (molecule, answer_label) VALUES
  ('O=C1NC(=NCCc2ccc(Cl)cc2)SC1=Cc1ccc2ncccc2c1', 'F'),
  ('Cc1cc(Cl)cc2c(N=Nc3ccc(S(N)(=O)=O)cc3)c(O)[nH]c12', 'F'),
  ('CC(=O)Nc1ccc2c(c1)C(c1ccccc1Cl)=Nc1c(n[nH]c1C)N2', 'F'),
  ('CCN(CC)S(=O)(=O)c1ccc(OC)c(Nc2ncc(-c3ccccc3)o2)c1', 'F'),
  ('CCC(=O)Nc1ccc(C)c(-c2ccc(C(=O)NCC3CC3)cc2)c1', 'F'),
  ('COc1ccc(CCN=C2NC(=O)C(=Cc3ccc4ncccc4c3)S2)cc1', 'F'),
  ('CN1CCN(C(=O)c2ccc(NC(=O)Nc3ccc(N(C)c4ccnc(Nc5ccc(CS(C)(=O)=O)cc5)n4)cc3)cc2)CC1', 'F'),
  ('COc1ccc(OC)c(C2=C(c3cn(C)c4ccccc34)C(=O)NC2=O)c1', 'F'),
  ('FC(F)(F)c1cccc(-c2nn3ncccc3c2-c2ccnc(Nc3ccc4c(c3)OCCO4)n2)c1', 'F'),
  ('O=C1Nc2ccc(I)cc2/C1=C\c1cc(Br)c(O)c(Br)c1', 'F'),
  ('Clc1ccc(-c2nn3ncccc3c2-c2ccnc(Nc3ccccc3)n2)cc1', 'F'),
  ('CCCNc1cccc(-n2ncc3c(N/N=C/c4ccncc4)ncnc32)c1', 'F'),
  ('COc1cc2ncn(-c3cc(OCc4ccccc4C(F)(F)F)c(C(C)=O)s3)c2cc1OC', 'F'),
  ('Cc1ccc(NC(=O)c2ccnc(N3CCOCC3)c2)cc1-c1ccc(C(=O)NCC2CC2)cc1', 'F'),
  ('Cn1cc(C2=C(c3cccc(Br)c3)C(=O)NC2=O)c2ccccc21', 'F'),
  ('COc1ccccc1C(=O)c1cnc(NC2CCN(S(C)(=O)=O)CC2)nc1N', 'F'),
  ('CCCN1CCC=C(c2ccc(Nc3nc(Nc4ccccc4C(N)=O)c4cc[nH]c4n3)c(C)c2)C1', 'F'),
  ('Nc1c(C(=O)c2cccc(C(O)CO)c2)cnn1-c1ccc(F)cc1 (centres undefined)', 'F'),
  ('Nc1nccc(-c2c(-c3ccc(F)cc3)ncn2CCCN2CCOCC2)n1', 'F'),
  ('Fc1ccc(-c2ncn(C3CCNCC3)c2-c2ccnc(Oc3ccc(Oc4ccccc4)cc3)n2)cc1', 'F'),
  ('Cn1cc(C2=C(c3ccc(N)cc3)C(=O)NC2=O)c2ccccc21', 'F'),
  ('NS(=O)(=O)c1ccc(N=Nc2c(O)[nH]c3ccc(C(=O)NCc4ccncc4)cc23)cc1', 'F'),
  ('Cn1c(=O)c(Oc2ccc(F)cc2)cc2cnc(NC3CCOCC3)nc21', 'F'),
  ('COc1cccc(-n2ncc3c(N/N=C/c4ccncc4)ncnc32)c1', 'T'),
  ('Cn1cc(C2=C(c3ccccc3[N+](=O)[O-])C(=O)NC2=O)c2ccccc21', 'T'),
  ('COC(=O)Nc1nc2ccc(Oc3ccc(NC(=O)Nc4cccc(Br)c4)cc3)cc2[nH]1', 'F'),
  ('Cc1[nH]n(-c2ccccc2)c(=O)c1C(=O)c1ccccc1', 'F'),
  ('CC(C)(O)Cn1c(=O)c(Oc2ccc(F)cc2F)cc2cnc(NC3CCOCC3)nc21', 'F'),
  ('O=C1NC(=NCCc2ccccn2)SC1=Cc1ccc2ncccc2c1', 'F');

###

# measurement_protocol: decreased DLD-1 cellular survival, CellTiter-Glo luminescent readout, NPC compound collection, primary HTS (AID 1117346)
# test_parameters: DLD-1 viability, CellTiter-Glo luminescence; at 20 µM (top of the series)
Calls of active or inactive are those of the source.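 How the source made its calls: active means compounds that lower survival of DLD-1 colon cancer cells in the luminescence readout, no cutoff given; inactive means the rest.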
Classes used: active, inactive

INSERT INTO results (compound, answer_label) VALUES
  ('CC(=O)c1ccc(OCC(=O)N2CCCCC2)cc1', 'inactive'),
  ('Cc1c(I)c(=O)n(-c2ccccc2)n1C', 'inactive'),
  ('CCCCC(C)(O)CC=C[C@H]1[C@H](O)CC(=O)[C@H]1CCCCCCC(=O)OC (stereo partly specified)', 'active'),
  ('NCCCC[C@H](N)C(=O)O', 'inactive'),
  ('N/C(=N\N=C\c1ccc(Cl)cc1)N/N=C/c1ccc(Cl)cc1', 'active'),
  ('C/C(=N\O)c1ccc(OCC(=O)N2CCCCC2)cc1', 'inactive');

###

The following molecules are listed with their measured fluorescence ratio values.
# measurement_protocol: fluorescence interference in NS3h assay format, artefact control for HCV NS3 helicase inhibitor project, biochemical, NIH Clinical Collection (AID 743272);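 also: HCV NS3 helicase with a Cy5 labelled single stranded DNA probe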
# test_parameters: fluorescence interference counterscreen, active compounds read low
value_kind: fluorescence ratio

INSERT INTO measurements (molecule, test_result) VALUES
  ('CN(C)CCc1c[nH]c2ccc(C[C@H]3COC(=O)N3)cc12', 1),
  ('NS(=O)(=O)c1cc(C2(O)NC(=O)c3ccccc32)ccc1Cl (stereo not given)', 1),
  ('CCCc1cc(=O)[nH]c(=S)[nH]1', 0.97),
  ('CCc1cccc2c3c([nH]c12)C(CC)(CC(=O)O)OCC3 (stereo not given)', 1.02),
  ('O[C@@H](c1cc(C(F)(F)F)nc2c(C(F)(F)F)cccc12)[C@H]1CCCCN1', 0.96);

###

# measurement_protocol: glucagon-like peptide 1 release enhancers, primary assay, NCI-H716 cell line, NPC library (AID 1117341)
# test_parameters: NCI-H716 cells, at 10 µM, active compounds read high
The following compounds are listed with their measured GLP1 secretion stimulation values.
value_kind: GLP1 secretion stimulation (%)

INSERT INTO results (smiles_code, uom, test_result) VALUES
  ('O=C(Nc1ccc(Cl)cc1)Nc1ccc(Cl)c(Cl)c1', '%', -3.2),
  ('CC(C)(C)c1nnc(NS(=O)(=O)c2ccc(N)cc2)s1', '%', 0.7),
  ('N[C@H](C(=O)O)c1ccc(O)cc1', '%', -2.9),
  ('O=C(Oc1ccccc1)c1ccccc1O', '%', -1.2),
  ('C/C=C/c1ccc(O)c(OC)c1', '%', -3.8),
  ('O=C(CCCN1CC=C(n2c(=O)[nH]c3ccccc32)CC1)c1ccc(F)cc1', '%', -0.5);

###

The following molecules are listed with their measured z-score values.
# measurement_protocol: activators of macrophage pro-inflammatory response, cell-based, murine, luminescence (AID 652131)
# test_parameters: murine macrophage pro-inflammatory reporter, active compounds read high
value_kind: z-score

INSERT INTO results (molecule, test_result) VALUES
  ('COc1ccc(-c2nn3ncccc3c2-c2ccnc(Nc3ccc(F)c(F)c3)n2)cc1', -0.312),
  ('CC1=C(C(=O)Nc2ccc3[nH]ncc3c2)C(c2ccc(F)cc2)N=C(c2ccc(C(F)(F)F)nc2)N1 (stereo not given)', 0.13),
  ('O=C1Nc2ccc(C(=O)c3ccco3)cc2/C1=C/c1cc(Cl)c(O)c(Cl)c1', -0.774),
  ('O=S1CCN(Cc2ccc(-c3ccc4ncnc(Nc5ccc(OCc6cccc(F)c6)c(Cl)c5)c4c3)o2)CC1', 13.5),
  ('O=C(Nc1n[nH]c2nc(-c3ccc(O)cc3)c(Br)cc12)C1CC1', -1.27),
  ('CC(=O)Nc1cccc(C#Cc2cncnc2Nc2ccc(OCc3cccc(F)c3)c(Cl)c2)n1', 0.499),
  ('Cn1c(-c2nonc2N)nc2cnccc21', -0.113),
  ('CS(=O)(=O)Nc1ccc(-c2ccc3c(NC(=O)C4CC4)n[nH]c3c2)cc1', -0.745),
  ('CCCN1CCCC(c2ccc(Nc3nc(Nc4cc(F)ccc4C(N)=O)c4cc[nH]c4n3)c(OC)c2)C1 (stereo not given)', -0.56),
  ('CS(=O)(=O)CCNCc1nc(-c2ccc3ncnc(Nc4ccc(OCc5cccc(C(F)(F)F)c5)cc4)c3c2)cs1', 0.202),
  ('COC(=O)Nc1nc2ccc(Oc3ccc(NC(=O)Nc4cccc(Cl)c4)cc3)cc2[nH]1', 0.651),
  ('NC(=O)CCc1ccccc1Oc1nccc(-c2c(-c3ccc(F)cc3)ncn2C2CCNCC2)n1', 0.861),
  ('CNC(=O)c1cncc(/C=C/c2ccccc2C)c1', 0.604),
  ('COc1cc(N2CCN(C(C)C)CC2)ccc1Nc1nc(Nc2ccc(F)cc2C(N)=O)c2cc[nH]c2n1', 0.179),
  ('CN1CCC(C(=O)NC2NNC3NNC(c4ccccc4)CC32)CC1 (stereo not given)', 3.5);

###

# measurement_protocol: modulation of C. elegans fzo-1 (AID 1259413);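 also: fzo-1 mutant C. elegans worms in liquid wells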
# test_parameters: C. elegans fzo-1 modulator screen, mean read-out; active compounds read high
The following compounds are listed with their measured mean signal values.
value_kind: mean signal

INSERT INTO measurements (compound, test_result) VALUES
  ('CCC(C)(C)C(=O)O[C@H]1C[C@@H](C)C=C2C=C[C@H](C)[C@H](CC[C@@H]3C[C@@H](O)CC(=O)O3)[C@H]21', 230),
  ('CC(C)NCC(O)c1ccc(O)c(O)c1 (configuration not stated)', 227),
  ('Nc1ccc(S(=O)(=O)c2ccc(N)cc2)cc1', 228),
  ('NNCCc1ccccc1', 213),
  ('CCCCCCCCCCC[C@@H](C[C@@H]1OC(=O)[C@H]1CCCCCC)OC(=O)[C@H](CC(C)C)NC=O', 258),
  ('CSc1ccc2c(c1)N(CCC1CCCCN1C)c1ccccc1S2 (configuration not stated)', 275),
  ('NCc1ccc(S(N)(=O)=O)cc1', 250);
